Assay: yeast display, Sf9 membrane polyspecificity reagent, FACS + sequencing; frameworks hold sequencing errors
Test Readout: polyreactivity (PSR sort gate)

>>> result_value("QVQLVESGGGLVQAGGSLRLSCAASGLTFGYYAMGWYRQAPGKERELVAAITGGGGSTYYADSVKGRFTISRDNAKNTVYLQMNSLKPEDTAVYYCAKAVYFRRKGHWYQMEYWGQGTQVTVSS")
"low polyreactivity"
>>> result_value("QVQRVESGGGLVQAGGSLRLSCAASGFTFESYAMGWYRQAHGKERELVAAITWDGGSTYYADSVKGRFTISRDNAKNTVYLQMNSLKPEDTAVYDCAADFGTISIDVYSWMDYWGQGTQVTGSS")
"low polyreactivity"
